target: MsepCSP5 (Mythimna separata); test: Fluorescence competitive binding assay with the probe 1-NPN; conditions: Ki, pH 7.4; Ki = IC50/(1+[1-NPN]/K1-NPN)
pKi: −log10 of the molar value.
measured_property: pKi

CCCCCCCCCCCC(C)=O :: 5.26
CCCCCC :: 5.23
CCC/C=C/C=O [Trans-2-hexenal] :: 5.04

(a) C=CC(C)(O)CCC=C(C)C (stereo not shown)
(b) CC12CCC(CC1)C(C)(C)O2
Enquiry: Sort a and b by pKi descending and give the first. Lab note: record the label of whichever item you select.
Return: b

(A) CC1=CCC(=C(C)C)CC1
(B) CCCCCC=O
Enquiry: Of A and B , whose reported pKi is numerically smaller? Kindly give the label for the entry you pick.
Return: A

(I) CCCCCCCCCCCCCCCC
(II) CCCCCCCCCC(C)=O
Enquiry: Lab note: record which item had the higher pKi, I or II . Mark your answer with the label of the selected entry.
Return: II

---

target: MsepCSP5 (Mythimna separata); assay: Fluorescence competitive binding assay with the probe 1-NPN; settings: Ki, pH 5.0; Ki = IC50/(1+[1-NPN]/K1-NPN)
measured_property: Ki (µM)

Check out these entries, answers already filled in.
CC1=CC[C@@H](C(C)(C)O)CC1 [α -Terpineol] :: 6.02
CCCCCCCCCCCCC [Tridecane] :: 228
CCCCCCCCCCCCCCCC [Hexadecane] :: 35.5
CC1=CCC(=C(C)C)CC1 [Terpinolene] :: 3.95

(1) CC/C=C\CCOC(C)=O [Cis-3-hexenyl acetate]
(2) CCCCCC(C)O (stereo not shown) [2-Heptanol]
Enquiry: Could you kindly indicate whether 1 or 2 has the higher Ki value? Label of pick, please.
Return: 1

---

target: MsepCSP5 (Mythimna separata, UniProt A0A5H2NAD7); assay: Fluorescence competitive binding assay with the probe 1-NPN; conditions: pH 7.4; displacement of 1-NPN from MsepCSP5
pIC50: −log10 of the molar value.
measured_property: pIC50

A selection of reference data follows.
Cc1ccc(C(C)C)cc1 :: 4.28
C=C(C)[C@H]1CC=C(C)CC1 [R-(+)-Limonene] :: 4.42
CC1=CC[C@@](O)(C(C)C)CC1 [(-)-Terpinen-4-ol] :: 4.46
CCCCCCCCCCCC=O :: 4.76

(A) CC1=CC=C(C(C)C)CC1
(B) CC(=O)/C=C/C1=C(C)CCCC1(C)C
Enquiry: Smaller pIC50 value? Options are A and B Please identify the chosen entry by its label.
Return: A
(A: 4.65, B: 4.89)

---

Target: MsepCSP5 (Mythimna separata, UniProt A0A5H2NAD7)
Sequence (A0A5H2NAD7 1-127): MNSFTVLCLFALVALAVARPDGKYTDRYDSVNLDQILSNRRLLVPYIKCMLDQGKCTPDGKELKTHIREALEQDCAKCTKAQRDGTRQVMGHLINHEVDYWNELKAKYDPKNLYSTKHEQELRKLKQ
Test: Fluorescence competitive binding assay with the probe 1-NPN
Settings: pH 5.0; Ki = IC50/(1+[1-NPN]/K1-NPN)
measured_property: Ki (µM)

Cc1ccc(C(C)C)cc1 :: 14.4
CC1=CC[C@@](O)(C(C)C)CC1 [(-)-Terpinen-4-ol] :: 4.33
CCCCCCCCCCCC=O :: 7.17

(P) C=C(C)[C@H]1CC=C(C)CC1 [R-(+)-Limonene]
(Q) CC1=CC=C(C(C)C)CC1
(R) CC(=O)/C=C/C1=C(C)CCCC1(C)C
Enquiry: Rank by Ki (largest to smallest). Output spec: labels arranged per the requested ranking.
Return: Q, P, R

---

target: MsepCSP5 (Mythimna separata, UniProt A0A5H2NAD7); assay: Fluorescence competitive binding assay with the probe 1-NPN; details: IC50, pH 5.0; displacement of 1-NPN from MsepCSP5
pIC50: −log10 of the molar value.
measured_property: pIC50

(a) COC(=O)c1ccccc1 [Methyl benzoate]
(b) CCCCCCCCCCCCC [Tridecane]
Enquiry: So which one has the bigger pIC50 here, a or b ? Indicate your choice by writing its label.
Return: a
(a: 4.96, b: 3.32)

(a) CC1=CCC(=C(C)C)CC1 [Terpinolene]
(b) CCCCCCCCCCCCCCCCCCCC [Eicosane]
Enquiry: Could you please tell me which of these two has the higher pIC50: a or b ? // output: label of the selected item
Return: a
(a: 5.08, b: 4.82)

(I) CC12CCC(CC1)C(C)(C)O2 [Eucalyptol]
(II) CCCCCCCCCCCCCCCC [Hexadecane]
Enquiry: // which entry has the larger pIC50 value, I or II ? Kindly give the label for the entry you pick.
Return: I

(P) CC1=CC[C@@H](C(C)(C)O)CC1 [α -Terpineol]
(Q) CCCCCCCC [Octane]
(R) C=CC(C)(O)CCC=C(C)C (centres unmarked) [Linalool]
Enquiry: Arrange the 3 entries by pIC50 so the values rise. Answer by writing out the labels in the requested order.
Return: R, P, Q
(R: 4.38, P: 4.90, Q: 5.14)

(1) CCCCCC=O [Hexanal]
(2) CCC/C=C/CO [Trans-2-hexen-1-ol]
Enquiry: Could you tell me which of 1 and 2 has the lower pIC50 reading? Answer by stating the label of the chosen item.
Return: 2
(2: 4.77, 1: 5.03)

---

molecular target: UniProtKB A0A5H2NAD7; experiment: Fluorescence competitive binding assay with the probe 1-NPN; conditions: IC50, pH 5.0; displacement of 1-NPN from MsepCSP5
pIC50: −log10 of the molar value.
measured_property: pIC50

Solved entries:
CCCCCCCCCCCCCCCCCCC :: 4.82
CCCCCC :: 4.73
C=CC(O)CCCCC (stereo not drawn) :: 5.04
CC/C=C\CCOC(C)=O [Cis-3-hexenyl acetate] :: 4.89

(P) C=CC(C)(O)CCC=C(C)CCC=C(C)C (mixture of isomers)
(Q) CCCCCCCCCC(C)=O
Enquiry: When P and Q are compared, which has the higher number for pIC50? Reply with the label of the item you choose.
Return: Q

---

target: MsepCSP5 (Mythimna separata, UniProt A0A5H2NAD7); experiment: Fluorescence competitive binding assay with the probe 1-NPN; settings: pH 5.0
measured_property: binding affinity to MsepCSP5 (in words)

Solved entries (count: 4):
CCCCCC(C)O (stereo not shown) [2-Heptanol] :: high binding affinity
CCC(O)CC [3-Pentanol] :: high binding affinity
CCCCCC=O [Hexanal] :: high binding
CCC/C=C/CO [Trans-2-hexen-1-ol] :: high binding affinity

Enquiry: Form field: binding affinity to MsepCSP5 (in words) recorded for C=CC(C)(O)CCC=C(C)CCC=C(C)C (mixture of isomers) [Nerolidol] with MsepCSP5 (Mythimna separata, UniProt A0A5H2NAD7) (enter value)
Return: high binding affinity

---

target: MsepCSP5 (Mythimna separata); experiment: Fluorescence competitive binding assay with the probe 1-NPN; conditions: Ki, pH 7.4; Ki = IC50/(1+[1-NPN]/K1-NPN)
pKi: −log10 of the molar value.
measured_property: pKi

// solved cases for pKi follow
CCOC(C)=O [Ethylacetate] :: 5.12
COC(=O)c1ccccc1 [Methyl benzoate] :: 4.73
CCCCCCCCCCCCC [Tridecane] :: 3.68
CC/C=C\CCO [Cis-3-hexen-1-ol] :: 4.05
CCCCCCCC [Octane] :: 5.03
CC/C=C\CCOC(C)=O [Cis-3-hexenyl acetate] :: 4.89

(P) CCC/C=C/CO [Trans-2-hexen-1-ol]
(Q) CC1=CC[C@@H](C(C)(C)O)CC1 [α -Terpineol]
(R) CCCCCCCCCCCCCC [Tetradecane]
Enquiry: Arrange the 3 entries by pKi so the values rise. Write the labels out in the order the request specifies.
Return: Q, P, R

---

molecular target: MsepCSP5 (Mythimna separata, UniProt A0A5H2NAD7); assay: Fluorescence competitive binding assay with the probe 1-NPN; details: pH 5.0; displacement of 1-NPN from MsepCSP5
pIC50: −log10 of the molar value.
measured_property: pIC50

Consider the reported pIC50 for these compounds:
C=C(C)[C@H]1CC=C(C)CC1 [R-(+)-Limonene] :: 4.96
CC1=CC=C(C(C)C)CC1 [α -Terpinene] :: 4.77

(a) CC1=CC[C@@](O)(C(C)C)CC1 [(-)-Terpinen-4-ol]
(b) CCCCCCCCCCCC=O [Dodecyl aldehyde]
(c) Cc1ccc(C(C)C)cc1 [4-lsopropyltoluene]
(d) CC(=O)/C=C/C1=C(C)CCCC1(C)C [β-Lonone]
Enquiry: Put the items in order so that reported pIC50 rises from first to last. Your answer should be the labels, listed in the requested order.
Return: c, b, a, d
(c: 4.52, b: 4.82, a: 5.04, d: 5.36)

---

molecular target: MsepCSP5 (Mythimna separata); experiment: Fluorescence competitive binding assay with the probe 1-NPN; conditions: pH 7.4; Ki = IC50/(1+[1-NPN]/K1-NPN)
measured_property: Ki (µM)

CCCCCCCCCCCC=O :: 6.86
CC1=CC[C@@](O)(C(C)C)CC1 [(-)-Terpinen-4-ol] :: 13.6
Cc1ccc(C(C)C)cc1 :: 20.7

(I) C=C(C)[C@H]1CC=C(C)CC1 [R-(+)-Limonene]
(II) CC(=O)/C=C/C1=C(C)CCCC1(C)C
(III) CC1=CC=C(C(C)C)CC1
Enquiry: Form: Sort by [Ki] Order [ ascending ] Answer with the labels in sequence, matching the requested order.
Return: II, III, I
